# System: HCC827(Δ19del)
# assay text: HCC827 cells proliferation assay
# Type: cell-based
# experimental conditions: Homo sapiens, HCC827; cell proliferation, 72 h, CellTiter Glo; class symbols; read-out: HCC827 IC50
pIC50: −log10 of the molar value.
Parameter pIC50: see the listing below.

Q: Would you kindly share the measured pIC50 for `C=CC(=O)Nc1cc(Nc2ncc(Cl)c(Nc3ccccc3P(C)(C)=O)n2)c(OC)cc1N1CCC(N2CCN(C)CC2)CC1` ?
Result: 7.30 to 8.00

====

# target of assay: EGFR T790M/L858R (Homo sapiens, UniProt P00533, L858R/T790M)
# Sequence (P00533 25-1210 T790M/L858R): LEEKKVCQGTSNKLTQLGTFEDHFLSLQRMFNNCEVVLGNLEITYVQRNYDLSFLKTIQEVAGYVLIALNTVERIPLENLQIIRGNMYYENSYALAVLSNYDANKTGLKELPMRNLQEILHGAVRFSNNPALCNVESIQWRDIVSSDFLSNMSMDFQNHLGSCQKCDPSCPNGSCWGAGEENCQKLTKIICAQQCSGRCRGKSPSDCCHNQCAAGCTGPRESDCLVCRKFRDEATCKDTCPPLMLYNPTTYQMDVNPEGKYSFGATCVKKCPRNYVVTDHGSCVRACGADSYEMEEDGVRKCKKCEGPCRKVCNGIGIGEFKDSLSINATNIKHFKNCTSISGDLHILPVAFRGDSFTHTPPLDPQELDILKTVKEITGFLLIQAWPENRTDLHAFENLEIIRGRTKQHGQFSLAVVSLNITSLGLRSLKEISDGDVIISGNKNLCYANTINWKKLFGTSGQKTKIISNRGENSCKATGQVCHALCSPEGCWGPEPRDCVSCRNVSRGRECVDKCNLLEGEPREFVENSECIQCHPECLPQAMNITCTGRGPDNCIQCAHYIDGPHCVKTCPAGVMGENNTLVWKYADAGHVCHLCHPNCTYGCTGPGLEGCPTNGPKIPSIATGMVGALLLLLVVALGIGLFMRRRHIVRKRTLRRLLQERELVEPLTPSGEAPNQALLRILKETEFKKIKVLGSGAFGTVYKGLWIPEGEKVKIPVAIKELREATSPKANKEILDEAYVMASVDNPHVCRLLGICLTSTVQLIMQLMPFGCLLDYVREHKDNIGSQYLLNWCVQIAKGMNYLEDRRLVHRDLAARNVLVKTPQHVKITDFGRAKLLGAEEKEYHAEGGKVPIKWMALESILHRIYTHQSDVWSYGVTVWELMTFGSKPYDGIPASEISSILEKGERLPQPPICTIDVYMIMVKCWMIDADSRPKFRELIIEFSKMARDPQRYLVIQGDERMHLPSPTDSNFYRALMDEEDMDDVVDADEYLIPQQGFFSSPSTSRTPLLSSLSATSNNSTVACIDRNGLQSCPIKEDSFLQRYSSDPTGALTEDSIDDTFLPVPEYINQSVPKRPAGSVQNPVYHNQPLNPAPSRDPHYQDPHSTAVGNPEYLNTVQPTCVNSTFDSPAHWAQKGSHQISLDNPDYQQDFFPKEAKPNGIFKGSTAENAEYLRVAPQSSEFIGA
# assay text: Kinase assay (mobility shift) for EGFR T790M/L858R
# Excerpt: Enzyme reaction protocol are as followed: 1. Preparing 1* Kinase buffer as followed. 2. […] 11. Read the conversion rate with Caliper EZ Reader. […] “max” stands for the mean value of the positive control well ratio; “min” stands for the mean value of the negative control well; conversion % sample: sample conversion reading. […]
readout name: IC50

Worked examples, 10 compounds total:
compound	IC50
C=CC(=O)Nc1cc(Nc2ncc(Cl)c(Nc3ccccc3P(C)(C)=O)n2)ccc1N(C)CCN1CCCC1 [Compound 18]	< 10 nM
C=CC(=O)Nc1cc(Nc2ncc(Cl)c(Nc3ccccc3P(C)(C)=O)n2)c(OC)cc1N1CCC2(CCC(N(C)C)CC2)CC1 [Compound 33]	< 10 nM
C=CC(=O)Nc1cc(Nc2ncc(Cl)c(Nc3ccccc3P(C)(C)=O)n2)ccc1N1CCC(N2CCN(C)CC2)CC1 [Compound 16]	< 10 nM
C=CC(=O)Nc1cc(Nc2ncc(Cl)c(Nc3ccccc3P(C)(C)=O)n2)ccc1N1CCC2(CC1)CC(N(C)C)C2 [Compound 36]	< 10 nM
C=CC(=O)Nc1cc(Nc2ncc(C)c(Nc3ccccc3P(C)(C)=O)n2)c(OC)cc1N(C)CCN(C)C [Compound 21]	< 10 nM
C=CC(=O)Nc1cc(Nc2nccc(Nc3ccccc3P(C)(C)=O)n2)ccc1N(C)CCN(C)C [Compound 37]	< 10 nM
C=CC(=O)Nc1cc(Nc2nccc(Nc3ccccc3P(C)(C)=O)n2)ccc1N1CCC(N2CCN(C)CC2)CC1 [Compound 38]	10 to 100 nM
C=CC(=O)Nc1cc(Nc2ncc(C)c(Nc3ccccc3P(C)(C)=O)n2)ccc1N(C)CCN(C)C [Compound 19]	< 10 nM
C=CC(=O)Nc1cc(Nc2ncc(Cl)c(Nc3ccccc3P(C)(C)=O)n2)ccc1N(C)CCN(C)C [Compound 15]	< 10 nM
C=CC(=O)Nc1cc(Nc2ncc(F)c(Nc3ccccc3P(C)(C)=O)n2)c(OC)cc1N1CCC(N2CCN(C)CC2)CC1 [Compound 28]	10 to 100 nM

Q: I am curious: what IC50 value has been reported for C=CC(=O)Nc1cc(Nc2nccc(Nc3ccccc3P(C)(C)=O)n2)c(OC)cc1N1CCC(N2CCN(C)CC2)CC1 [Compound 40] ?
Result: 10 to 100 nM

Q: # IC50 lookup, item C=CC(=O)Nc1cc(Nc2ncc(Cl)c(Nc3ccccc3P(C)(C)=O)n2)c(OC)cc1N1CC2(CCC(N(C)C)CC2)C1 [Compound 26]
Result: < 10 nM

Q: Could you share which IC50 value was measured for C=CC(=O)Nc1cc(Nc2ncc(Cl)c(Nc3ccccc3P(C)(C)=O)n2)ccc1N1CC2(CCC(N(C)C)CC2)C1 [Compound 2] ?
Result: < 10 nM

Q: Fill in: IC50 of C=CC(=O)Nc1cc(Nc2ncc(C)c(Nc3ccccc3P(C)(C)=O)n2)c(OC)cc1N1CCC(N2CCN(C)CC2)CC1 [Compound 22] is ___
Result: < 10 nM

====

# Test system: HCC827(Δ19del)
# assay text: HCC827 cells proliferation assay
# Format: cell-based
# experimental conditions: Homo sapiens, HCC827; cell proliferation, 72 h, CellTiter Glo; numeric values; read-out: HCC827 IC50
readout name: pIC50
Keep in mind that pIC50 stands for -log10 of concentration in molar terms.

Q: Report pIC50 for CCN1CC2(C1)CN(c1ccc(Nc3ncc(Cl)c(Nc4ccccc4P(C)(C)=O)n3)cc1C)C2 [Comparative compound A, reference compound] please.
Result: 7.05

====

Item-by-item account of GI50
# target of assay: Ba/F3-L858R/T790M/C797S (Homo sapiens, UniProt P00533, T790M/C797S/L858R, cells depend on it)
# Construct: BaF3 L858R/T790M/C797S IC50; other: cell proliferation, 72 h, CellTiter Glo; class symbols; numeric values
# Sequence (P00533 whole entry T790M/C797S/L858R): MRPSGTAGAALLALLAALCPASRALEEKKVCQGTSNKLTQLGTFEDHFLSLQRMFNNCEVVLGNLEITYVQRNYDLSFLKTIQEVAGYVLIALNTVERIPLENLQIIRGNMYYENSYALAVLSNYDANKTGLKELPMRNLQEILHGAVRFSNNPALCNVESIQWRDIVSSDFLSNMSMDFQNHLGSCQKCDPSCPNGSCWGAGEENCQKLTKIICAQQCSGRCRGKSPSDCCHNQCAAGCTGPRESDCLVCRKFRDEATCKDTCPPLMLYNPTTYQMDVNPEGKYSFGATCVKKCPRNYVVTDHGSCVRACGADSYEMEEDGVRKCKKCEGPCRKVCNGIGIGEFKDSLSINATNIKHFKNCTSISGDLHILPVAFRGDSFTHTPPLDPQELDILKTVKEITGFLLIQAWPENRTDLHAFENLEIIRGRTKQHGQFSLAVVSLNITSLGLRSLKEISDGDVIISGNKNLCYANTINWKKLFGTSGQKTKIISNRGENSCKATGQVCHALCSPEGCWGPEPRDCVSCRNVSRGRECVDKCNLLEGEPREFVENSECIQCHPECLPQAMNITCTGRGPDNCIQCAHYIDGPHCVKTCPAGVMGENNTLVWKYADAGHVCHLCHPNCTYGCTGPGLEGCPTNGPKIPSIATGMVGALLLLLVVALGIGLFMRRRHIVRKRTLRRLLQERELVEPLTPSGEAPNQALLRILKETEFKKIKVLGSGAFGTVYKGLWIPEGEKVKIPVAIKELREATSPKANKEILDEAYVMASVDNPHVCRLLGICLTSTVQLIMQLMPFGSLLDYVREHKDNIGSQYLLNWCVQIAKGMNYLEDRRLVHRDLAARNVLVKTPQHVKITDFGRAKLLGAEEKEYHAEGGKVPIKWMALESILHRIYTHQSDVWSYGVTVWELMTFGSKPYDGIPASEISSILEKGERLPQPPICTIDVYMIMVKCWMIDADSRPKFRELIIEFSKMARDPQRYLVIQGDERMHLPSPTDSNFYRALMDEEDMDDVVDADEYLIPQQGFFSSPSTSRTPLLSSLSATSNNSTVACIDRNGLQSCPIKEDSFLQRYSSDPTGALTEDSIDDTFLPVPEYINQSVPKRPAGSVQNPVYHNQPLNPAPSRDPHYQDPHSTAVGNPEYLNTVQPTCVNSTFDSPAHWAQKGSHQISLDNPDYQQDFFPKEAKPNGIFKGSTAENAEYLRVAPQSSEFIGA
# assay text: Ba/F3-L858R/T790M/C797S cells proliferation assay
# Assay type: cell-based
# experimental conditions: cell proliferation, 72 h, CellTiter Glo; class symbols; read-out: BaF3 L858R/T790M/C797S IC50

Worked examples, 3 molecules total:
molecule	GI50
C=CC(=O)Nc1cc(Nc2ncc(Cl)c(Nc3ccccc3P(C)(C)=O)n2)ccc1N1CCC2(CCC(N(C)C)CC2)CC1	< 0.01 µM
CCN1CC2(C1)CN(c1ccc(Nc3ncc(Cl)c(Nc4ccccc4P(C)(C)=O)n3)cc1C)C2 [Comparative compound A, reference compound]	< 0.01 µM
C=CC(=O)Nc1cc(Nc2ncc(Cl)c(Nc3ccccc3P(C)(C)=O)n2)ccc1N1CCN2CCC[C@H]2C1	0.01 to 0.05 µM

Q: Can you share its GI50? I mean this molecule: `C=CC(=O)Nc1cc(Nc2ncc(Cl)c(Nc3ccccc3P(C)(C)=O)n2)ccc1N1CCC(N2CCN(C)CC2)CC1`
Result: 0.01 to 0.05 µM

Q: What does the data say about its GI50? Entry: `C=CC(=O)Nc1cc(Nc2ncc(Br)c(Nc3ccc4nccnc4c3P(C)(C)=O)n2)ccc1N1CCC2(CC1)CC(N(C)C)C2`
Result: < 0.01 µM

Q: GI50 for `C=CC(=O)Nc1cc(Nc2ncc(Cl)c(Nc3ccc4ncccc4c3P(C)(C)=O)n2)ccc1N1CCC2(CC1)CC(N(C)C)C2` ?
Result: 0.01 to 0.05 µM

====

# Test system: HCC827(Δ19del)
# assay text: HCC827 cells proliferation assay
# Type: cell-based
# experimental conditions: Homo sapiens, HCC827; cell proliferation, 72 h, CellTiter Glo; class symbols; read-out: HCC827 IC50
pIC50: −log10 of the molar value.
readout name: pIC50

Reference set, count: 5
structure smiles	pIC50
C=CC(=O)Nc1cc(Nc2ncc(F)c(Nc3ccccc3P(C)(C)=O)n2)ccc1N(C)CCN(C)C	> 8.00
C=CC(=O)Nc1cc(Nc2ncc(Cl)c(Nc3ccccc3P(C)(C)=O)n2)ccc1N1CCN2CCC[C@H]2C1	7.30 to 8.00
C=C(C)C(=O)Nc1cc(Nc2ncc(Cl)c(Nc3ccccc3P(C)(C)=O)n2)ccc1N1CCC2(CC1)CC(N(C)C)C2	7.30 to 8.00
C=CC(=O)Nc1cc(Nc2ncc(Cl)c(Nc3ccc4ncccc4c3P(C)(C)=O)n2)ccc1N1CCC2(CC1)CC(N(C)C)C2	7.30 to 8.00
C=CC(=O)Nc1cc(Nc2ncc(C)c(Nc3ccccc3P(C)(C)=O)n2)c(OC)cc1N1CCC(N2CCN(C)CC2)CC1	> 8.00

Q: Report pIC50 for `C=CC(=O)Nc1cc(Nc2ncc(Cl)c(Nc3ccc4nccnc4c3P(C)(C)=O)n2)c(OC)cc1N1CCC2(CC1)CC(N(C)C)C2` please.
Result: 7.30 to 8.00

Q: Given the entry `C=CC(=O)Nc1cc(Nc2nccc(Nc3ccccc3P(C)(C)=O)n2)ccc1N(C)CCN(C)C` , report its measured pIC50.
Result: > 8.00

====

Entries and their measured GI50 follow.
# target of assay: Ba/F3-Δ19del/T790M/C797S (Homo sapiens, UniProt P00533, T790M/C797S, cells depend on it, form not given)
# Sequence (P00533 with tags, fused parts or gaps DEL746-750/T790M/C797S, form open): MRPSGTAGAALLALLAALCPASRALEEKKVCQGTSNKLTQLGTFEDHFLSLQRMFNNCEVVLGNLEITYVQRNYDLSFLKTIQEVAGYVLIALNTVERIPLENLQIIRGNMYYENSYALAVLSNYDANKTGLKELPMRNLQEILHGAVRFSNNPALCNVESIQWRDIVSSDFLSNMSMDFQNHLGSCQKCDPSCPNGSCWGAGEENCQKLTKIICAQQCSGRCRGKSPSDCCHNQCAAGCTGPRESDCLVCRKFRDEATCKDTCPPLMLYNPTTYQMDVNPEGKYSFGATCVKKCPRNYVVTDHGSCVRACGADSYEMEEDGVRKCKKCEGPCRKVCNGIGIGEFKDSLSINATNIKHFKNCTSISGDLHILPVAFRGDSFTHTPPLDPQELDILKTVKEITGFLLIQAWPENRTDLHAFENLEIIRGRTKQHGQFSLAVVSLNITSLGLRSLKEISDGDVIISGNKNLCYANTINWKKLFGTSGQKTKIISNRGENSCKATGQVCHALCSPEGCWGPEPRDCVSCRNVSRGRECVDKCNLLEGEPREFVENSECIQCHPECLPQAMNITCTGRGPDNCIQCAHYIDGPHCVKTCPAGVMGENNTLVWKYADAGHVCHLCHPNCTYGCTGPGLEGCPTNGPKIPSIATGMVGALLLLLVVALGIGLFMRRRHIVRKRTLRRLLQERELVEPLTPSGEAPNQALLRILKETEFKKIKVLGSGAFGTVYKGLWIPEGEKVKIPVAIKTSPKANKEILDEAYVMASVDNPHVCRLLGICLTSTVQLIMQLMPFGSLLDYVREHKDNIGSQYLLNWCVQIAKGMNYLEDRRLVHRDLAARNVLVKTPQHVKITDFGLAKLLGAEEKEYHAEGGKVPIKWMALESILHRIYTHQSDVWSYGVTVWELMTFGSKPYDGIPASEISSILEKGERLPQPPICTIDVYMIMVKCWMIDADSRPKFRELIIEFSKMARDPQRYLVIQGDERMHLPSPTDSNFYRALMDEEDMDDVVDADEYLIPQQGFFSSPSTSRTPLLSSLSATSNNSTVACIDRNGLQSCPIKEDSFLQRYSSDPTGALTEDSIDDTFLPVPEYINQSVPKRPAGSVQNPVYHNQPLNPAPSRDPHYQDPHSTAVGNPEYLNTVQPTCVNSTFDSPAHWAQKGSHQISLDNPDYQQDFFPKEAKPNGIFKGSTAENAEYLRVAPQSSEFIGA
# assay text: Ba/F3-Δ19del/T790M/C797S cells proliferation assay
# Format: cell-based
# experimental conditions: cell proliferation, 72 h, CellTiter Glo; class symbols; read-out: BaF3 Δ 19del/T790M/C797S IC50

Answered cases to consult:
structure smiles	GI50
C=CC(=O)Nc1cc(Nc2ncc(Cl)c(Nc3ccccc3P(C)(C)=O)n2)ccc1N1CCC(N2CCN(C)CC2)CC1	10 to 50 nM
C=CC(=O)Nc1cc(Nc2ncc(C)c(Nc3ccccc3P(C)(C)=O)n2)ccc1N(C)CCN(C)C	10 to 50 nM

Q: Need GI50, item `C=CC(=O)Nc1cc(Nc2ncc(Cl)c(Nc3ccc4nccnc4c3P(C)(C)=O)n2)c(OC)cc1N1CCC2(CC1)CC(N(C)C)C2`
Result: 10 to 50 nM

Q: Which GI50 reading was recorded for the molecule `C=CC(=O)Nc1cc(Nc2ncc(Cl)c(Nc3ccc4nccnc4c3P(C)(C)=O)n2)ccc1N1CCC2(CC1)CC(N(C)C)C2` ?
Result: < 10 nM

Q: Give the measured GI50 of `C=CC(=O)Nc1cc(Nc2ncc(C)c(Nc3ccccc3P(C)(C)=O)n2)ccc1N1CCC(N2CCN(C)CC2)CC1` .
Result: 10 to 50 nM

Q: Dear colleague, I am looking for the recorded GI50 of the following molecule: `C=CC(=O)Nc1cc(Nc2ncc(Cl)c(Nc3ccccc3P(C)(C)=O)n2)ccc1N1CCC2(CCC(N(C)C)CC2)CC1`
Result: < 10 nM

Q: Consider the molecule shown here: `C=CC(=O)Nc1cc(Nc2ncc(Cl)c(Nc3ccccc3P(C)(C)=O)n2)ccc1N(C)CCN(C)C` What is its recorded GI50?
Result: 10 to 50 nM

Q: Fill in the blank: the reported GI50 of `C=CC(=O)Nc1cc(Nc2ncc(Br)c(Nc3ccc4nccnc4c3P(C)(C)=O)n2)ccc1N(C)CCN(C)C` is ____.
Result: < 10 nM

Q: Returns the measured GI50 for the input molecule. Input: `C=CC(=O)Nc1cc(Nc2ncc(F)c(Nc3ccccc3P(C)(C)=O)n2)ccc1N1CCC(N2CCN(C)CC2)CC1`
Result: 10 to 50 nM

Q: Name the reported GI50 value associated with the molecule `CN(C)C/C=C/C(=O)Nc1cc(Nc2ncc(Cl)c(Nc3ccccc3P(C)(C)=O)n2)ccc1N1CCC2(CC1)CC(N(C)C)C2`
Result: 10 to 50 nM
